tested on: S. aureus DSM 20231; test: Bliss interaction score (quartile over a dose matrix) (fitness difference); higher = more antagonism (negative = synergy);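 further: first quartile when negative (synergy) and third quartile when positive (antagonism)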
Recorded endpoint: Bliss interaction score
A bare number is all that is needed in reply.

Examples with their reported Bliss interaction score follow.
Molecule	Recorded endpoint	Observed measurement
CCC[C@@H]1C[C@@H](C(=O)N[C@@H]([C@H]2O[C@H](SC)[C@H](O)[C@@H](O)[C@H]2O)[C@H](C)Cl)N(C)C1 [Clindamycin] + CCC[C@@H]1C[C@@H](C(=O)N[C@@H]([C@H]2O[C@H](SC)[C@H](O)[C@@H](O)[C@H]2O)[C@@H](C)O)N(C)C1 [Lincomycin]	Bliss interaction score	-0.0523
CC[C@H]1OC(=O)[C@H](C)[C@@H](O[C@H]2C[C@@](C)(OC)[C@@H](O)[C@H](C)O2)[C@H](C)[C@@H](O[C@@H]2O[C@H](C)C[C@H](N(C)C)[C@H]2O)[C@](C)(OC)C[C@@H](C)C(=O)[C@H](C)[C@@H](O)[C@]1(C)O [Clarithromycin] + COc1cccc2c1C(=O)c1c(O)c3c(c(O)c1C2=O)C[C@@](O)(C(=O)CO)C[C@@H]3O[C@H]1C[C@H](N)[C@H](O)[C@H](C)O1 [Doxorubicin]	Bliss interaction score	0.0858

Request: Which Bliss interaction score value is on record for CC[C@H]1OC(=O)[C@H](C)[C@@H](O[C@H]2C[C@@](C)(OC)[C@@H](O)[C@H](C)O2)[C@H](C)[C@@H](O[C@@H]2O[C@H](C)C[C@H](N(C)C)[C@H]2O)[C@](C)(OC)C[C@@H](C)C(=O)[C@H](C)[C@@H](O)[C@]1(C)O [Clarithromycin] + CN[C@@H]1[C@H](O[C@H]2[C@H](O[C@H]3[C@H](O)[C@@H](O)[C@H](N=C(N)N)[C@@H](O)[C@@H]3N=C(N)N)O[C@@H](C)[C@]2(O)C=O)O[C@@H](CO)[C@H](O)[C@H]1O [Streptomycin] ?
Response: 0.0696

Cited source for all entries: the supplement of paper PMC10627819
